Hello, the source for this data is patent US20200291018A1, in case you need it.

# assay-system: UniProt:Q06418
# Sequence (Q06418 41-890): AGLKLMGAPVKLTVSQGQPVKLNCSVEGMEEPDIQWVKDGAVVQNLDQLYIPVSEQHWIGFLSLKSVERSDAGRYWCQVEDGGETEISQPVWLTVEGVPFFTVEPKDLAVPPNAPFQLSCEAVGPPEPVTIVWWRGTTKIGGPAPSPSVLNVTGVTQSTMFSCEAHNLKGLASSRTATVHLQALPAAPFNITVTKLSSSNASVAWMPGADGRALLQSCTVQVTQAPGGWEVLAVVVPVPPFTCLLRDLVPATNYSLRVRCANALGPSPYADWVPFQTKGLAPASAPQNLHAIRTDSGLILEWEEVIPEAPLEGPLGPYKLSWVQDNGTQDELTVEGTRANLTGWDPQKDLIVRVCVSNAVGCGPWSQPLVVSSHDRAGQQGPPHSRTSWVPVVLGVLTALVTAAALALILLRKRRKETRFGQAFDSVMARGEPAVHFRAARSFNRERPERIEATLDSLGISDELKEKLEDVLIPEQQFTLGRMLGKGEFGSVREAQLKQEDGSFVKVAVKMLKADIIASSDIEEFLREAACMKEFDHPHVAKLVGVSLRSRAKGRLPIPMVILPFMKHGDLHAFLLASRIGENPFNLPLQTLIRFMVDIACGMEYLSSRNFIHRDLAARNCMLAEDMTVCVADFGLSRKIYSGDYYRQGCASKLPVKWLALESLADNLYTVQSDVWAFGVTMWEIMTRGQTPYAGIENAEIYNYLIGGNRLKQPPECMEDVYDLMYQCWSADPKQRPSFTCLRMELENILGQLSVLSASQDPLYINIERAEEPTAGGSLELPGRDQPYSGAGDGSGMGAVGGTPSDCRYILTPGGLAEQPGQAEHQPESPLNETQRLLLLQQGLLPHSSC
readout-kind: IC50

The cases that follow already have their IC50 on record.
compound	IC50
CCC[C@@H](C)Nc1ncc2c(=O)n(C3CCNCC3)cc([C@H]3CC[C@H](O)CC3)c2n1 [Compound 152]	≤ 100 nM
CCCC(C)Nc1ncc2c(N(C)C3CCN(C)CC3)ncc([C@H]3CC[C@H](O)CC3)c2n1 (stereo partly shown) [Compound 146]	≤ 100 nM
C[C@@H](CC(F)(F)F)Nc1ncc2c(O[C@H]3C[C@](C)(O)C3)ncc([C@H]3CC[C@H](O)CC3)c2n1 [Compound 430]	≤ 100 nM
COC[C@H](C)Nc1ncc2c(OC3CCOCC3)ncc(C3CCC4(CC3)OCCO4)c2n1 [Compound 243]	1000 to 10000 nM
COCCN1C(C)(C)CC(Oc2ncc([C@H]3CC[C@H](O)CC3)c3nc(N[C@@H](C)CC(F)(F)F)ncc23)CC1(C)C [Compound 355]	≤ 100 nM
O[C@H]1CC[C@H](c2cnc(OC3CCOCC3)c3cnc(N[C@H]4CCC(F)(F)C4)nc32)CC1 [Compound 336]	100 to 1000 nM

Okay, next one:
Query string: Look up IC50: O[C@H]1CC[C@H](c2cnc(OC3CCNCC3)c3cnc(Nc4cccc(Cl)c4)nc32)CC1 [Compound 205]
Result string: ≤ 100 nM

====

# assay-system: TYRO3 (Homo sapiens, UniProt Q06418)
The entries below come with measured IC50 values attached.

The cases that follow already have their IC50 on record.
molecule	IC50
CCN1C(C)(C)CC(Oc2ncc([C@H]3CC[C@H](O)CC3)c3nc(N[C@@H](C)CC(F)(F)F)ncc23)CC1(C)C [Compound 391]	≤ 100 nM
COC[C@H](C)Nc1cc2c(cn1)c(OC1CCOCC1)ncc2[C@H]1CC[C@H](O)CC1 [Compound 285]	100 to 1000 nM
COC[C@H](C)Nc1ncc2c(OC3CCOCC3)ncc(-c3cccc(S(N)(=O)=O)c3)c2n1 [Compound 328]	100 to 1000 nM

Okay, next one:
Query string: What measured IC50 is associated with CCCCNc1ncc2c(OC)ncc([C@H]3CC[C@H](O)CC3)c2n1 [Compound 127] on TYRO3 (Homo sapiens, UniProt Q06418)?
Result string: ≤ 100 nM

====

# assay-system: MERTK (Homo sapiens, UniProt Q12866)
# Sequence (Q12866 21-999): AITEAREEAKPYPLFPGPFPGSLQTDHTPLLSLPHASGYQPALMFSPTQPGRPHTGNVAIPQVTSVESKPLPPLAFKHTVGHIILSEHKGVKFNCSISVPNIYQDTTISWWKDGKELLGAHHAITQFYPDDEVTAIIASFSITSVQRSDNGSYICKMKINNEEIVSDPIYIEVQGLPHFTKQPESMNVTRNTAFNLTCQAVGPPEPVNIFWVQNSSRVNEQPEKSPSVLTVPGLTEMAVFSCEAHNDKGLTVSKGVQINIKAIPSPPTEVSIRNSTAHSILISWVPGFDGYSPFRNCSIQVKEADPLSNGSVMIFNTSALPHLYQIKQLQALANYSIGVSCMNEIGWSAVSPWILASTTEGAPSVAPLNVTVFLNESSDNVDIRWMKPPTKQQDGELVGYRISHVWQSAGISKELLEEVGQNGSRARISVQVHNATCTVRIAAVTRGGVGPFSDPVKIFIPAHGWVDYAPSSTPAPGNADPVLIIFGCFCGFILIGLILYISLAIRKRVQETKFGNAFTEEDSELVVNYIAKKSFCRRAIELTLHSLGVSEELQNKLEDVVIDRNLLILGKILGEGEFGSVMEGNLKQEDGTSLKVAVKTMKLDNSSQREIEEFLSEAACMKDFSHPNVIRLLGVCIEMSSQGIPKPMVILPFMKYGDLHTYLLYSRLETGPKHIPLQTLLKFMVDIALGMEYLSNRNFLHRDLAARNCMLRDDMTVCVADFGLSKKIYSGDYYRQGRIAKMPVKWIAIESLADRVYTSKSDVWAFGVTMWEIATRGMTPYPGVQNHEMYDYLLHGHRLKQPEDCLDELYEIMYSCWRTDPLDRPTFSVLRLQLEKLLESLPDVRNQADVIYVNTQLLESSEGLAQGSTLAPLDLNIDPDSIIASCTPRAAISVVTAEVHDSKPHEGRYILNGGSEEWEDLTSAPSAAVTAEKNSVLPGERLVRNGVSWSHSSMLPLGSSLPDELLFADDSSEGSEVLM
# assay-overview: TR-FRET kinase activity assay, MERTK
# Format: biochemical
# measurement-conditions: TR-FRET activity assay, ATP at Km, 60 minutes; read-out: Mer IC50
pIC50: −log10 of the molar value.
readout-kind: pIC50

compound	assay-system	pIC50
C[C@@H](CC(F)(F)F)Nc1ncc2c(OC3CCN(S(C)(=O)=O)CC3)ncc([C@H]3CC[C@H](O)CC3)c2n1 [Compound 389]	MERTK (Homo sapiens, UniProt Q12866)	≥ 7.00
CCCC(C)Nc1ncc2c(=O)n(CC3CCN(C)CC3)cc([C@H]3CC[C@H](O)CC3)c2n1 (stereo partly shown) [Compound 193]	MERTK (Homo sapiens, UniProt Q12866)	≥ 7.00

Query string: Look up pIC50: COC[C@H](C)Nc1ncc2c(OC3CCOCC3)ncc([C@H]3CCCNC3)c2n1 [Compound 326]
Result string: 6.00 to 7.00

Query string: Look up pIC50: COCCN1C(C)(C)CC(Oc2ncc([C@H]3CC[C@H](O)CC3)c3nc(N[C@@H](C)CCO)ncc23)CC1(C)C [Compound 380]
Result string: ≥ 7.00

Query string: Look up pIC50: C[C@H](CC(F)(F)F)Nc1ncc2c(OC3CCOCC3)ncc([C@H]3CC[C@H](O)CC3)c2n1 [Compound 338]
Result string: ≥ 7.00

Query string: Look up pIC50: CCOc1ncc([C@H]2CC[C@H](O)CC2)c2nc(N[C@@H](C)CC(F)(F)F)ncc12 [Compound 359]
Result string: ≥ 7.00

Query string: Look up pIC50: C[C@@H](CC(F)(F)F)Nc1ncc2c(OC3CCOCC3)ncc([C@H]3CC[C@H](O)CC3)c2n1 [Compound 305]
Result string: ≥ 7.00

Query string: Look up pIC50: C[C@@H](CC(F)(F)F)Nc1ncc2c(O[C@H]3C[C@@H](O)C3)ncc([C@H]3CC[C@@](C)(O)CC3)c2n1 [Compound 424]
Result string: ≥ 7.00

====

Parameter IC50, tested on AXL (Homo sapiens, UniProt P30530), listed per item.

The cases that follow already have their IC50 on record.
molecule	IC50
CO[C@H]1C[C@@H]1Nc1ncc2c(O[C@H]3C[C@@H](O)C3)ncc([C@H]3CC[C@H](O)CC3)c2n1 [Compound 417]	≤ 100 nM
C[C@@H](CC(F)(F)F)Nc1ncc2c(O[C@@H]3C[C@H]4CC[C@@H](C3)N4C[C@H]3CCOC3)ncc([C@H]3CC[C@H](O)CC3)c2n1 [Compound 414]	≤ 100 nM

Query string: Look up IC50: COC[C@H](C)Nc1ncc2c(OC3CCOCC3)ncc([C@H]3CC[C@H](NS(C)(=O)=O)CC3)c2n1 [Compound 316]
Result string: 1000 to 10000 nM

Query string: Look up IC50: COC(=O)N[C@H]1C[C@@H](Oc2ncc([C@H]3CC[C@H](O)CC3)c3nc(N[C@@H](C)CC(F)(F)F)ncc23)C1 [Compound 435]
Result string: ≤ 100 nM

Query string: Look up IC50: CC[C@H](C)Nc1ncc2c(OCC34CCC(N)(CC3)CC4)ncc([C@H]3CC[C@H](O)CC3)c2n1 [Compound 252]
Result string: 100 to 1000 nM

====

Parameter IC50, tested on UniProt P30530, listed per item.

The cases that follow already have their IC50 on record.
compound	IC50
COC[C@H](C)Nc1ncc2c(OC3CCOCC3)ncc(-c3ccc(N)cc3)c2n1	1000 to 10000 nM
COCCN1C(C)(C)CC(Oc2ncc([C@H]3CC[C@H](O)CC3)c3nc(N[C@@H]4CCOC4)ncc23)CC1(C)C	100 to 1000 nM
CCCC(C)Nc1ncc2c(N3CC[C@@H](N(C)C)C3)ncc([C@H]3CC[C@H](O)CC3)c2n1 (stereo partly shown)	100 to 1000 nM
O=C(O)[C@H]1CC[C@H](Nc2ncc3c(OC4CCOCC4)ncc([C@H]4CC[C@H](O)CC4)c3n2)CC1	1000 to 10000 nM
COC[C@H](C)Nc1ncc2c(OC3CCOCC3)ncc(-c3ccc(CC#N)cc3)c2n1	100 to 1000 nM

Query string: Look up IC50: CCCC(C)Nc1ncc2c(OC3CCN(S(C)(=O)=O)CC3)ncc([C@H]3CC[C@H](O)CC3)c2n1 (stereo partly shown)
Result string: 100 to 1000 nM

Query string: Look up IC50: COC[C@H](C)Nc1ncc2c(OC3CCOCC3)ncc(C3=CCC4(CC3)OCCO4)c2n1
Result string: 1000 to 10000 nM

====

The entries below come with measured pIC50 values attached.
Target sequence: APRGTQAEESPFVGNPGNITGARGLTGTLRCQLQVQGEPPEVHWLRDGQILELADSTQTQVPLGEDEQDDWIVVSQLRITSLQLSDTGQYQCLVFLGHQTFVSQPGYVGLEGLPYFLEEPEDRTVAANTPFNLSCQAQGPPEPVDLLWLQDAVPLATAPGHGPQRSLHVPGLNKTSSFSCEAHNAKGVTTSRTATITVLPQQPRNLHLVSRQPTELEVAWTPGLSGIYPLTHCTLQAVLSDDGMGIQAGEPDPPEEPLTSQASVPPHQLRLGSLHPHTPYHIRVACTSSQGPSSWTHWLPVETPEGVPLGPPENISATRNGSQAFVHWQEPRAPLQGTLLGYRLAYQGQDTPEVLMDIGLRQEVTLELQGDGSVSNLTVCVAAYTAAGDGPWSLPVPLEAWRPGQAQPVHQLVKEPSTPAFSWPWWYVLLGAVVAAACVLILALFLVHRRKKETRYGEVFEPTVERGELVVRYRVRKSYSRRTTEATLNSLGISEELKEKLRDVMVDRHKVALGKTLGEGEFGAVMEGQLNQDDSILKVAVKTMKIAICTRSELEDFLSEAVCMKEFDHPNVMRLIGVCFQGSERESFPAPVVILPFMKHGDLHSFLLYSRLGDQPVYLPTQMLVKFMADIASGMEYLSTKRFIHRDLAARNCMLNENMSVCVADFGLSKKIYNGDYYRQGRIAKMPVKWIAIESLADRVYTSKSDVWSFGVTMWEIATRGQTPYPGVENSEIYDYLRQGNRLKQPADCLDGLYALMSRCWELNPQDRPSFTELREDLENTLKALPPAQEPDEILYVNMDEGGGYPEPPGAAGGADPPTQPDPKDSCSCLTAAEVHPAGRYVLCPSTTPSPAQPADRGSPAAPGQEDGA
pIC50: −log10 of the molar value.

The cases that follow already have their pIC50 on record.
compound	readout-kind	result
C[C@@H](CCF)Nc1ncc2c(OC3CCOCC3)ncc([C@H]3CC[C@H](O)CC3)c2n1	pIC50	6.00 to 7.00
CO[C@H]1C[C@@H](Oc2ncc([C@H]3CC[C@H](O)CC3)c3nc(N[C@@H](C)CC(F)(F)F)ncc23)C1	pIC50	6.00 to 7.00
CC[C@H](C)Nc1ncc2c(Cl)ncc([C@H]3CC[C@H](O)CC3)c2n1	pIC50	6.00 to 7.00
C[C@@H](CC(F)(F)F)Nc1ncc2c(O[C@H]3C[C@H](CN4CCOCC4)C3)ncc([C@H]3CC[C@H](O)CC3)c2n1	pIC50	≥ 7.00
COC[C@H](C)Nc1ncc2c(O[C@H]3C[C@@H](O)C3)ncc([C@H]3CC[C@](C)(O)CC3)c2n1	pIC50	6.00 to 7.00

Query string: Look up pIC50: CCCCNc1cc2c(cn1)c(=O)n(C1CCN(C)CC1)cc2[C@H]1CC[C@H](O)CC1
Result string: 6.00 to 7.00

Query string: Look up pIC50: CC1(Nc2ncc3c(OC4CCNCC4)ncc([C@H]4CC[C@H](O)CC4)c3n2)CC1
Result string: 6.00 to 7.00

Query string: Look up pIC50: COC[C@H](C)Nc1ncc2c(O[C@H]3C[C@@H](O)C3)ncc(-c3ccnnc3)c2n1
Result string: 5.00 to 6.00

Query string: Look up pIC50: CCc1cc(Nc2ncc3c(OC4CCNCC4)ncc([C@H]4CC[C@H](O)CC4)c3n2)ccc1Cl
Result string: ≥ 7.00
